- target-entity: Nucleotide-binding oligomerization domain-containing protein 1 (Homo sapiens) (UniProt Q9Y239)
- Sequence (Q9Y239 whole entry, the tested form may be a part): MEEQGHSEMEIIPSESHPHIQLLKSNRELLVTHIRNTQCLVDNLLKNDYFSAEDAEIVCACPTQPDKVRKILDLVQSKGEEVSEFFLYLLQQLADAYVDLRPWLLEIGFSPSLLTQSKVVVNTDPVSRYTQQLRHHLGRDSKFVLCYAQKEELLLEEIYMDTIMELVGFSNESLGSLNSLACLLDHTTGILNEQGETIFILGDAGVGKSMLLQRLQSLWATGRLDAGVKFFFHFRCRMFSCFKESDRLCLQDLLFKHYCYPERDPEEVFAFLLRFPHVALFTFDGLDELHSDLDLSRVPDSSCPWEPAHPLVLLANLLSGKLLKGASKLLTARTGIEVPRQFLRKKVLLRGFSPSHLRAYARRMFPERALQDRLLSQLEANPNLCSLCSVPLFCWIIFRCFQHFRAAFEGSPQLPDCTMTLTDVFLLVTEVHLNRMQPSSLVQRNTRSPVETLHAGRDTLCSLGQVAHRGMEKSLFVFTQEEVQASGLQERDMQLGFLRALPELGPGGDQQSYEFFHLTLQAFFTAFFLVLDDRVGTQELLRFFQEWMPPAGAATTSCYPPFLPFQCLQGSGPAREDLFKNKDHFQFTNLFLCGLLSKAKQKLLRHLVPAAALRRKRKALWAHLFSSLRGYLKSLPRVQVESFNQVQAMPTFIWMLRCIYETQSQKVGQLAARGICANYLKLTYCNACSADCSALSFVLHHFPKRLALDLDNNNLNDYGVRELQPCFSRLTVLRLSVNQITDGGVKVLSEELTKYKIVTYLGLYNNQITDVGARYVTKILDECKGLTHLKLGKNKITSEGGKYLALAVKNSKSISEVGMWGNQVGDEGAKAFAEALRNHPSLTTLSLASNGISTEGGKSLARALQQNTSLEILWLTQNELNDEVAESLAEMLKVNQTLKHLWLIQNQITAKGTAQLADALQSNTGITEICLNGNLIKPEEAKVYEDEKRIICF
- test-summary: Antagonist activity at human NOD1 expressed in HEK-Blue cells assessed as inhibition of C12-iE-DAP-stimulated cell activation at 10 uM preincubated for 3 hrs followed by C12-iE-DAP addition measured after 20 hrs by SEAP reporter gene assay
- Type: cell-based
Task for the reader: assign each of the following compounds its reported inhibition.

- compound: "COC(=O)CC[C@H]1NC(=O)c2cc(Oc3cccc(N(C)C)c3)c(NC(=O)COCc3ccc(F)c(F)c3)cc2NC1=O"
  inhibition: "89%"
- compound: "COC(=O)CC[C@H]1NC(=O)c2cc(Oc3cccc(N4CCCC4)c3)c(NC(=O)COCc3ccc(Cl)cc3)cc2NC1=O"
  inhibition: "86.6%"
- compound: "COC(=O)CC[C@H]1NC(=O)c2cc(Oc3cccc4ccccc34)c(NC(=O)C3CC3)cc2NC1=O"
  inhibition: "6.34%"

Dear colleague, could you please provide inhibition for the compounds listed below?
1. CCN(CC)C(=O)CC[C@H]1NC(=O)c2cc(Cl)ccc2NC1=O
2. COC(=O)CC[C@H]1NC(=O)c2cc(N3CCOCC3)c(NC(=O)C3CC3)cc2NC1=O
3. COC(=O)CC[C@H]1NC(=O)c2cc(Oc3cccc(N(C)C)c3)c(NC(=O)COCc3ccc(C(F)(F)F)cc3)cc2NC1=O

Ans:
1: -0.11%; 2: 6.82%; 3: 90.7%

Dear colleague, could you please provide inhibition for the compounds listed below?
1. COC(=O)CC[C@H]1NC(=O)c2cc(Oc3cccc(N(C)C)c3)c(NC(=O)COCc3ccc(C(C)(C)C)cc3)cc2NC1=O
2. CCCCCCCCCN1C(=O)[C@@H](CCC(N)=O)N(C)C(=O)c2ccc(Cl)cc21
3. O=C(CC[C@H]1NC(=O)c2cc(N3CCOCC3)c(NC(=O)C3CC3)cc2NC1=O)NC1CCCc2ccccc21 (some centres not stated)
4. COC(=O)CCC1NC(=O)c2cc(Cl)ccc2N(CC2CC2)C1=O (configuration not stated)
5. NC(=O)CC[C@H]1NC(=O)c2cc(Oc3cccc4ccccc34)c(NC(=O)C3CC3)cc2NC1=O

Ans:
["73.3%", "22%", "22.6%", "-3.06%", "41.6%"]

Dear colleague, could you please provide inhibition for the compounds listed below?
1. COC(=O)CC[C@H]1NC(=O)c2cc(Oc3cccc4ccccc34)c(NC(=O)/C=C\c3ccc(F)cc3Cl)cc2NC1=O
2. CN(C)c1cccc(Oc2cc3c(cc2NC(=O)COCc2ccccc2)NC(=O)[C@@H](CCC(=O)N2CCCCC2)NC3=O)c1
3. COC(=O)CC[C@H]1NC(=O)c2cc(Oc3cccc(N(C)C)c3Cl)c(NC(=O)COCc3ccc(Cl)cc3)cc2NC1=O
4. CCCCNC(=O)CC[C@H]1NC(=O)c2cc(Oc3cccc(N(C)C)c3)c(NC(=O)COCc3ccccc3)cc2NC1=O
5. COC(=O)CC[C@H]1NC(=O)c2cc(Oc3cccc(N(C)C)c3)c(NC(=O)COCc3ccc(OC)cc3)cc2NC1=O
6. COC(=O)CC[C@H]1NC(=O)c2cc(Oc3cccc(N(C)C)c3)c(NC(=O)COCc3ccc(Cl)cc3)cc2NC1=O

Ans:
37.9%
86.7%
0.08%
86%
21.6%
90.6%
